Tested on: SKBR3 (PI3Kα-Wild Type) cell line
Assay: HTRF phospho-AKT(S473) cell assay in SKBR3 cells
Type: cell-based, human
Details: Homo sapiens, SK-BR-3; HTRF phospho-AKT(S473), SKBR3 (PI3Kα-Wild Type) cells, 2 hours compound incubation, PDGF-BB stimulated
MEASURE: IC50

Some compounds with known IC50 results, for comparison:
# COMPOUND, OBSERVED_MEASUREMENT
rows = [
    ("[2H]C([2H])([2H])n1cc2cc(-c3nc4c([C@@H](C)Nc5ccc(Cl)nc5C(=O)NS(C)(=O)=O)cc(C)cc4c(=O)n3C)ccc2n1 [Compound 817]", "1 to 5 µM"),
    ("Cc1cc([C@@H](C)Nc2ccc(Cl)nc2C(=O)NS(C)(=O)=O)c2nc(N3CC[C@@H](Oc4ncc(F)cn4)C3)n(C)c(=O)c2c1 [Compound 538]", "1 to 5 µM"),
    ("Cc1cc([C@@H](C)Nc2ccc(Cl)nc2C(=O)NS(C)(=O)=O)c2nc(N3C[C@H]4C[C@@H]3C[C@H]4c3nn(C)cc3F)n(C)c(=O)c2c1 [Compound 766]", "≥ 5 µM"),
    ("Cc1cc([C@@H](C)Nc2ccc(Cl)nc2C(=O)NS(C)(=O)=O)c2nc(-c3ccc4c(c3)C(=O)N(C)C4)n(C)c(=O)c2c1 [Compound 776]", "1 to 5 µM"),
]

QUERY: Test system SKBR3 (PI3Kα-Wild Type) cell line; read-out IC50; what value for Cc1cc([C@@H](C)Nc2ccc(Cl)nc2C(=O)NS(C)(=O)=O)c2nc(N3Cc4cn(-c5ccccn5)nc4C3)n(C)c(=O)c2c1 [Compound 688] ?
RESULT: ≥ 5 µM

QUERY: Entry Cc1cc([C@@H](C)Nc2ccc(Cl)nc2C(=O)NS(C)(=O)=O)c2nc(N3CCN(c4nc(C)ncc4F)CC3)n(C)c(=O)c2c1 [Compound 575] , system SKBR3 (PI3Kα-Wild Type) cell line: what IC50 was measured?
RESULT: 1 to 5 µM

QUERY: Request - read-out IC50 | tested on SKBR3 (PI3Kα-Wild Type) cell line | compound COc1ccc([C@H]2[C@@H]3CN(c4nc5c([C@@H](C)Nc6ccc(Cl)nc6C(=O)NS(C)(=O)=O)cc(C)cc5c(=O)n4C)C[C@@H]32)cn1 [Compound 610]
RESULT: ≥ 5 µM

---

This listing pairs compounds with measured IC50.
Tested on: T47D (PI3Kα-H1047R) cell line
Assay: HTRF phospho-AKT(S473) cell assay in T47D cells
Assay type: cell-based, human
Details: Homo sapiens; HTRF phospho-AKT(S473), T47D (PI3Kα-H1047R) cells, 2 hours compound incubation

Answered cases to consult:
# COMPOUND, ASSAYED_SYSTEM, MEASURE, OBSERVED_MEASUREMENT
measured = [
    ("Cc1cc([C@@H](C)Nc2ccc(Cl)nc2C(=O)NS(C)(=O)=O)c2nc(N3CCC(c4nc(C(F)(F)F)n(C)n4)CC3)n(C)c(=O)c2c1", "T47D (PI3Kα-H1047R) cell line", "IC50", "250 to 500 nM"),
    ("COc1cc(C2CCN(c3nc4c([C@@H](C)Nc5ccc(Cl)nc5C(=O)NS(C)(=O)=O)cc(C)cc4c(=O)n3C)CC2)nn1C", "T47D (PI3Kα-H1047R) cell line", "IC50", "250 to 500 nM"),
    ("Cc1cc([C@@H](C)Nc2ccc(Cl)nc2C(=O)NS(C)(=O)=O)c2nc(N3[C@@H]4CC[C@H]3C[C@H](n3cc(C)cn3)C4)n(C)c(=O)c2c1", "T47D (PI3Kα-H1047R) cell line", "IC50", "250 to 500 nM"),
    ("COc1nccc(N2C[C@H]3C[C@@H]2CN3c2nc3c([C@@H](C)Nc4ccc(Cl)nc4C(=O)NS(C)(=O)=O)cc(C)cc3c(=O)n2C)n1", "T47D (PI3Kα-H1047R) cell line", "IC50", "250 to 500 nM"),
    ("Cc1cc([C@@H](C)Nc2ccc(Cl)nc2C(=O)NS(C)(=O)=O)c2nc(-c3ccc(-c4ncc(C#N)cc4C)c(F)c3)n(C)c(=O)c2c1", "T47D (PI3Kα-H1047R) cell line", "IC50", "250 to 500 nM"),
]

QUERY: Report IC50 for `Cc1cc([C@@H](C)Nc2ccc(Cl)nc2C(=O)NS(C)(=O)=O)c2nc(C3(c4ccccc4)CC3)n(C)c(=O)c2c1` please.
RESULT: 250 to 500 nM

QUERY: Reported IC50, compound `Cc1cc([C@@H](C)Nc2ccc(Cl)nc2C(=O)NS(C)(=O)=O)c2nc(N3C[C@@H]4[C@H](C3)[C@H]4c3ccn(C4CC4)n3)n(C)c(=O)c2c1` : ____
RESULT: 250 to 500 nM

QUERY: Which IC50 value is on record for `Cc1cc([C@@H](C)Nc2ccc(Cl)nc2C(=O)NS(C)(=O)=O)c2nc(N3C[C@@H]4[C@H](C3)[C@H]4c3ccnn3C(F)F)n(C)c(=O)c2c1` ?
RESULT: < 250 nM

QUERY: Given the entry `Cc1cnc([C@H]2[C@@H]3CN(c4nc5c([C@@H](C)Nc6ccc(Cl)nc6C(=O)NS(C)(=O)=O)cc(C)cc5c(=O)n4C)C[C@@H]32)nc1` , report its measured IC50.
RESULT: 250 to 500 nM

QUERY: Sample `Cc1cc([C@@H](C)Nc2ccc(Cl)nc2C(=O)NS(C)(=O)=O)c2nc(N3C[C@@H]4[C@H](C3)[C@H]4c3nnc(C)n3C(F)F)n(C)c(=O)c2c1` — what was its IC50?
RESULT: 250 to 500 nM

---

As shown below, each of these compounds has a reported IC50 value.
Test system: SKBR3 (PI3Kα-Wild Type) cell line
Assay: HTRF phospho-AKT(S473) cell assay in SKBR3 cells
Assay type: cell-based, human
Conditions: Homo sapiens, SK-BR-3; HTRF phospho-AKT(S473), SKBR3 (PI3Kα-Wild Type) cells, 2 hours compound incubation, PDGF-BB stimulated

# COMPOUND, OBSERVED_MEASUREMENT
rows = [
    ("CC(=O)N1CCN(c2ccc(-c3nc4c([C@@H](C)Nc5ccc(Cl)nc5C(=O)NS(C)(=O)=O)cc(C)cc4c(=O)n3C)cc2F)CC1 [Compound 778]", "1 to 5 µM"),
    ("Cc1cc([C@@H](C)Nc2ccc(Cl)nc2C(=O)NS(C)(=O)=O)c2nc(N3CCN(c4ccnc(C(F)F)n4)CC3)n(C)c(=O)c2c1 [Compound 649]", "1 to 5 µM"),
    ("Cc1cc([C@@H](C)Nc2ccc(Cl)nc2C(=O)NS(C)(=O)=O)c2nc(C3CCN(c4ncc(C#N)cc4C)CC3)n(C)c(=O)c2c1 [Compound 837]", "1 to 5 µM"),
    ("Cc1cc([C@@H](C)Nc2ccc(Cl)nc2C(=O)NS(C)(=O)=O)c2nc(-c3ccc(-c4cnn(C)c4)c(F)c3)n(C)c(=O)c2c1 [Compound 794]", "1 to 5 µM"),
    ("Cc1cc([C@@H](C)Nc2ccc(Cl)nc2C(=O)NS(C)(=O)=O)c2nc(N3C[C@@H]4CC(c5cnc(C)nc5)C[C@H]4C3)n(C)c(=O)c2c1 (mixture of isomers) [Compound 762]", "≥ 5 µM"),
    ("Cc1cc([C@@H](C)Nc2ccc(Cl)nc2C(=O)NS(C)(=O)=O)c2nc(N3CC[C@H](c4ccnc(C)n4)C3)n(C)c(=O)c2c1 (relative stereo) [Compound 599]", "≥ 5 µM"),
]

Attention now shifts to the item below.
QUERY: Query: IC50; subject: Cc1cc([C@@H](C)Nc2ccc(Cl)nc2C(=O)NS(C)(=O)=O)c2nc(N3CCC(c4n[nH]c(C)c4F)CC3)n(C)c(=O)c2c1 [Compound 547]
RESULT: ≥ 5 µM

---

System: T47D (PI3Kα-H1047R) cell line
Experiment: HTRF phospho-AKT(S473) cell assay in T47D cells
Type: cell-based, human
Details: Homo sapiens; HTRF phospho-AKT(S473), T47D (PI3Kα-H1047R) cells, 2 hours compound incubation
pIC50: −log10 of the molar value.
MEASURE: pIC50

Look over these answered cases.
# COMPOUND, pIC50
measured = [
    ("Cc1cc([C@@H](C)Nc2ccc(Cl)nc2C(=O)NS(C)(=O)=O)c2nc(-c3ccccc3)n(C)c(=O)c2c1 [Compound 813]", "6.30 to 6.60"),
    ("Cc1cc([C@@H](C)Nc2ccc(Cl)nc2C(=O)NS(C)(=O)=O)c2nc(N3CCC[C@@H](c4cnc(C)c(C#N)c4)C3)n(C)c(=O)c2c1 (relative stereo) [Compound 614]", "6.00 to 6.30"),
]

QUERY: May I ask what pIC50 has been recorded for Cc1cc([C@@H](C)Nc2ccc(Cl)nc2C(=O)NS(C)(=O)=O)c2nc(N3C[C@@H]4[C@H](C3)[C@H]4c3n[nH]cc3Cl)n(C)c(=O)c2c1 [Compound 593] ?
RESULT: 6.30 to 6.60

QUERY: Item under review: Cc1cc([C@@H](C)Nc2ccc(Cl)nc2C(=O)NS(C)(=O)=O)c2nc(-c3ccc4nn(CC(F)(F)F)cc4c3)n(C)c(=O)c2c1 [Compound 784] . Reported pIC50?
RESULT: > 6.60

QUERY: For the compound Cc1cc([C@@H](C)Nc2ccc(Cl)nc2C(=O)NS(C)(=O)=O)c2nc(N3CCC(c4ncc(F)cn4)CC3)n(C)c(=O)c2c1 [Compound 486] , what pIC50 is on record?
RESULT: > 6.60

QUERY: May I ask what pIC50 has been recorded for COc1nccnc1C1CCN(c2nc3c([C@@H](C)Nc4ccc(Cl)nc4C(=O)NS(C)(=O)=O)cc(C)cc3c(=O)n2C)CC1 [Compound 563] ?
RESULT: 6.30 to 6.60
